- Test system: Escherichia coli
- PROTOCOL TEXT: minimum inhibitory concentration (MIC)
- SETUP CONDITIONS: isolate (source animal id): 110
minimum inhibitory concentration values, listed per item

Below are worked cases with known answers.
>>> value_observed("CS(=O)(=O)c1ccc([C@@H](O)[C@@H](CF)NC(=O)C(Cl)Cl)cc1 [Florfenicol]")
"> 8 µg/mL"
>>> value_observed("CCC[C@@H]1C[C@@H](C(=O)N[C@@H]([C@H]2O[C@H](SC)[C@H](O)[C@@H](O)[C@H]2O)[C@H](C)Cl)N(C)C1 [Clindamycin]")
"> 16 µg/mL"

Query block: Fill in the blank: the reported minimum inhibitory concentration of CN[C@@H]1[C@H](O)[C@H](NC)[C@H]2O[C@@]3(O)C(=O)C[C@@H](C)O[C@H]3O[C@@H]2[C@H]1O [Spectinomycin] is ____.
Result block: ≤ 8 µg/mL

###

minimum inhibitory concentration values, listed per item
- Test system: Escherichia coli
- PROTOCOL TEXT: minimum inhibitory concentration (MIC)
- SETUP CONDITIONS: isolate (source animal id): 8

>>> value_observed("CNC(C)C1CCC(N)C(OC2C(N)CC(N)C(OC3OCC(C)(O)C(NC)C3O)C2O)O1 (centres undefined)")
"≤ 1 µg/mL"
>>> value_observed("CC[C@H]1OC(=O)C[C@@H](O)[C@H](C)[C@@H](O[C@@H]2O[C@H](C)[C@@H](O)[C@H](N(C)C)[C@H]2O)[C@@H](CCN2C[C@H](C)C[C@H](C)C2)C[C@@H](C)C(=O)/C=C/C(C)=C/[C@@H]1CO[C@@H]1O[C@H](C)[C@@H](O)[C@@H](OC)[C@H]1OC")
"> 16 µg/mL"
>>> value_observed("CC1(C)S[C@@H]2[C@H](NC(=O)[C@H](N)c3ccccc3)C(=O)N2[C@H]1C(=O)O")
"4 µg/mL"

Query block: Fill in the blank: the reported minimum inhibitory concentration of CCC[C@@H]1C[C@@H](C(=O)N[C@@H]([C@H]2O[C@H](SC)[C@H](O)[C@@H](O)[C@H]2O)[C@H](C)Cl)N(C)C1 is ____.
Result block: > 16 µg/mL

###

- System: Pasteurella multocida
- PROTOCOL TEXT: minimum inhibitory concentration (MIC)
- SETUP CONDITIONS: isolate (source animal id): 227
minimum inhibitory concentration values, listed per item

>>> value_observed("CCCNC[C@]1(O)[C@H](C)O[C@@H](O[C@H]2[C@H](C)[C@@H](O[C@@H]3O[C@H](C)C[C@H](N(C)C)[C@H]3O)[C@](C)(O)C[C@@H](C)CN[C@H](C)[C@@H](O)[C@](C)(O)[C@@H](CC)OC(=O)[C@@H]2C)C[C@@]1(C)OC [Tulathromycin]")
"≤ 8 µg/mL"
>>> value_observed("CS(=O)(=O)c1ccc([C@@H](O)[C@@H](CF)NC(=O)C(Cl)Cl)cc1 [Florfenicol]")
"0.5 µg/mL"
>>> value_observed("CC[C@H]1OC(=O)C[C@@H](O)[C@H](C)[C@@H](O[C@@H]2O[C@H](C)[C@@H](O)[C@H](N(C)C)[C@H]2O)[C@@H](CCN2CCCCC2)C[C@@H](C)C(=O)/C=C/C(C)=C/[C@@H]1CN1CCCCC1 [Tildipirosin]")
"≤ 1 µg/mL"
>>> value_observed("COc1cc(Cc2cnc(N)nc2N)cc(OC)c1OC.Cc1cc(NS(=O)(=O)c2ccc(N)cc2)no1 [trimethoprim-sulfamethoxazole]")
"≤ 2 µg/mL"

Query block: Fill in the blank: the reported minimum inhibitory concentration of CN1C[C@@H]2C[C@H]1CN2c1cc2c(cc1F)c(=O)c(C(=O)O)cn2C1CC1 [Danofloxacin] is ____.
Result block: ≤ 0.12 µg/mL
